Assay read-out pIC50 on Receptor-type tyrosine-protein kinase FLT3 (Homo sapiens, UniProt P36888); records merged from the literature.
pIC50: −log10 of the molar value.

Worked set:
{"columns": ["COMPOUND", "MEASURED_METRIC", "REPORTED_MEASUREMENT"],
 "data": [
  ["CCc1nc2c(N)ncc(-c3ccc(N4CCC(N5CCN(C)CC5)CC4)c(OC)c3)c2nc1NCC(C)(C)O", "pIC50", "≥ 8.00"],
  ["OC1CCC(c2cc(-c3ccnc(N4CCOCC4)c3)c3cnc(NC4CCOC4)nn23)CC1 (stereo not shown)", "pIC50", "≥ 7.00"],
  ["CN1CCN(c2ccc3[nH]c(-c4cc(-c5ccc(NC(=O)Nc6ccc(F)c(C(F)(F)F)c6)cc5)[nH]n4)nc3c2)CC1", "pIC50", "> 7.30"],
  ["CCCS(=O)(=O)Nc1ccc(F)c(C(=O)c2c[nH]c3ncc(OC)cc23)c1F", "pIC50", "≥ 5.00"],
  ["CCc1nc2c(N)ncc(-c3cnn(C4CCN(S(=O)(=O)C(C)C)CC4)c3)c2nc1N[C@@H]1CC[C@H](O)C1", "pIC50", "≥ 8.00"]
]}

**Query** Recorded pIC50 of CCc1nc2c(N)ncc(-c3cnn(C4CCNCC4)c3)c2nc1NC1CCOCC1 , please.
**Result** ≥ 8.00

**Query** Can you handle Cc1ccc(F)cc1NC(=O)Nc1ccc(-c2cc(-c3nc4ccc(N5CCN(C)CC5)cc4[nH]3)n[nH]2)cc1 next?
**Result** > 7.30

---

Assay read-out IC50 on Receptor-type tyrosine-protein kinase FLT3 (Homo sapiens, UniProt P36888); records merged from the literature.

Worked set:
{"columns": ["COMPOUND", "REPORTED_MEASUREMENT"],
 "data": [
  ["COC[C@H](C)Nc1ncc2c(-c3cnn(C)c3)cc([C@H]3CC[C@H](O)CC3)n2n1", "100 to 1000 nM"],
  ["CCCCC[C@H](C)Nc1ncc2c(N3CCNCC3)cc([C@H]3CC[C@H](O)CC3)n2n1", "100 to 1000 nM"],
  ["COC[C@H](C)Nc1ncc2c(-c3cnn(C[C@@H]4CCO4)c3)cc([C@H]3CC[C@H](O)CC3)n2n1", "100 to 1000 nM"],
  ["COc1ccc(CNc2ccc(Cc3c[nH]c4ncncc34)cn2)cn1", "≤ 10000 nM"],
  ["CN(C)S(=O)(=O)c1cccc(-c2cnc(OC3CCOCC3)c3cnc(NC4(C)CC4)nc23)c1", "100 to 1000 nM"]
]}

**Query** Recorded IC50 of CCCC(C)Nc1ncc2c(=O)n(C3CCN(CCOC)CC3)cc([C@H]3CC[C@H](O)CC3)c2n1 (stereo partly shown) , please.
**Result** 1000 to 10000 nM

**Query** Can you handle O[C@H]1CC[C@H](c2cnc(OC3CCNCC3)c3cnc(N[C@@H]4CCOC4)nc32)CC1 next?
**Result** 1000 to 10000 nM

**Query** Can you handle CNC(=O)c1cc(NC(=O)Nc2ccc(Oc3cc(N)ncn3)cc2)cc(C(F)(F)F)c1 next?
**Result** 160 nM

---

Assay read-out IC50 on Receptor-type tyrosine-protein kinase FLT3 (Homo sapiens); records merged from the literature.

{"columns": ["MOLECULE", "TESTED_SYSTEM", "IC50"],
 "data": [
  ["CCCC(C)Nc1ncc2c(OC3CCS(=O)(=O)CC3)ncc([C@H]3CC[C@@H](O)CC3)c2n1 (some centres unmarked)", "Receptor-type tyrosine-protein kinase FLT3 (Homo sapiens)", "1 to 10 µM"],
  ["CCc1nc2c(N)ncc(-c3cnn(CC4COC4)c3)c2nc1N[C@@H]1CC[C@H](O)C1", "Receptor-type tyrosine-protein kinase FLT3 (Homo sapiens)", "≤ 0.01 µM"],
  ["CC[C@@H](C)Nc1ncc2c(OC3CCN(C)CC3)ncc([C@H]3CC[C@H](O)CC3)c2n1", "Receptor-type tyrosine-protein kinase FLT3 (Homo sapiens)", "1 to 10 µM"]
]}

**Query** Missing value: IC50, Receptor-type tyrosine-protein kinase FLT3 (Homo sapiens), entry COc1ccc(-c2n[nH]c3c2Cc2sc(-c4ccc(N5CCN(C)CC5)nc4)cc2-3)cc1 . Fill in?
**Result** < 0.1 µM

**Query** Can you handle COC[C@H](C)Nc1ncc2c(OC3CCOCC3)ncc([C@H]3CC[C@H](NS(C)(=O)=O)CC3)c2n1 next?
**Result** 1 to 10 µM

**Query** Can you handle FC(F)(F)Oc1ccccc1Nc1n[nH]c2c1Cc1sccc1-2 next?
**Result** > 1 µM

**Query** Can you handle Nc1nc2ccccc2c2c(=O)c3ccc(Cl)cc3sc12 next?
**Result** > 1 µM

**Query** Can you handle CN1CCN(c2ccc3[nH]c(-c4cc(-c5ccc(NC(=O)Nc6ccc(Cl)cc6)cc5)[nH]n4)nc3c2)CC1 next?
**Result** < 0.05 µM

---

pIC50: −log10 of the molar value.
Assay read-out pIC50 on Receptor-type tyrosine-protein kinase FLT3 (Homo sapiens, UniProt P36888); records merged from the literature.

Worked set:
{"columns": ["MOLECULE", "TESTED_SYSTEM", "pIC50"],
 "data": [
  ["CCCC(C)Nc1ncc2c(O[C@H]3CC[C@@H](O)CC3)ncc([C@H]3CC[C@H](O)CC3)c2n1 (stereo partly shown)", "Receptor-type tyrosine-protein kinase FLT3 (Homo sapiens, UniProt P36888)", "5.00 to 6.00"],
  ["CCc1nc2c(N)ncc(-c3cnn(-c4ccc(C#N)c(F)c4)c3)c2nc1N[C@@H]1CC[C@H](O)C1", "Receptor-type tyrosine-protein kinase FLT3 (Homo sapiens, UniProt P36888)", "≥ 8.00"],
  ["Cl.c1cc(Nc2ncc3ccc4ncc(C5CCCC5)n4c3n2)ncc1N1CCNCC1", "Receptor-type tyrosine-protein kinase FLT3 (Homo sapiens, UniProt P36888)", "> 8.30"],
  ["COCC(C)Nc1ncc2c(-c3ccc4cc[nH]c4c3)cc(C3CCC(O)CC3)n2n1 (stereo not shown)", "Receptor-type tyrosine-protein kinase FLT3 (Homo sapiens, UniProt P36888)", "5.00 to 6.00"],
  ["Cc1c2ccc(Nc3ncc(Cl)c(NC4CCN(c5ccc(C#N)cn5)CC4)n3)cc2nn1C", "Receptor-type tyrosine-protein kinase FLT3 (Homo sapiens, UniProt P36888)", 6.82]
]}

**Query** Recorded pIC50 of CCN1CCC(Nc2ccc3c(c2)/C(=C(\c2cc(F)cc(F)c2)c2nc(C)c[nH]2)C(=O)N3)CC1 , please.
**Result** > 7.30

**Query** Can you handle COc1ccc(NC(=O)Nc2ccc(-c3cc(-c4ccc(N5CCN(C)CC5)cc4)[nH]n3)cc2)c(OC)c1 next?
**Result** > 7.30

**Query** Can you handle CCc1nc2c(N)ncc(-c3cnn(C4CCN(C)CC4)c3)c2nc1NC1CCOCC1 next?
**Result** ≥ 8.00

**Query** Can you handle CCc1nc(C(N)=O)c(Nc2ccc3c(c2)OC[C@H]2CN(C4CC4)CCN32)nc1NC1CCOCC1 next?
**Result** > 9.00

**Query** Can you handle CCc1nc2c(N)ncc(-c3cnn(C4CC4)c3)c2nc1N[C@@H]1CC[C@H](O)C1 next?
**Result** ≥ 8.00

---

Assay read-out IC50 on UniProt P36888; records merged from the literature.

{"columns": ["MOLECULE", "IC50"],
 "data": [
  ["C[C@@H](CC(F)F)Nc1ncc2c(O[C@H]3C[C@@H](O)C3)ncc([C@H]3CC[C@H](O)CC3)c2n1", "100 to 1000 nM"],
  ["CCCCC[C@H](C)Nc1ncc2c(=O)n(C3CCOCC3)cc([C@H]3CC[C@H](O)CC3)c2n1", "1000 to 10000 nM"],
  ["CCc1ncc([C@H]2CC[C@H](O)CC2)c2nc(N[C@@H](C)CC)ncc12", "1000 to 10000 nM"]
]}

**Query** Recorded IC50 of Cc1ccc(Cl)cc1Nc1ncc2c(OC3CCNCC3)ncc([C@H]3CC[C@H](O)CC3)c2n1 , please.
**Result** 100 to 1000 nM

**Query** Can you handle CC[C@H](C)Nc1ncc2c(=O)n(C3CCN(S(C)(=O)=O)CC3)cc([C@H]3CC[C@H](O)CC3)c2n1 next?
**Result** 1000 to 10000 nM

**Query** Can you handle COc1ccc(-c2n[nH]c3c2Cc2sc(-c4ccc(NC(=O)CN5CCCC5)nc4)cc2-3)cc1 next?
**Result** < 100 nM

**Query** Can you handle CC(C)(C)c1cc(NC(=O)Nc2ccc(-c3cn4c(n3)sc3nc(OCCN5CCNCC5)ccc34)cc2)no1 next?
**Result** 34 nM
